A compilation of published pIC50 results with Protein arginine N-methyltransferase 5 (Homo sapiens, UniProt O14744).
Sequence (O14744 whole entry): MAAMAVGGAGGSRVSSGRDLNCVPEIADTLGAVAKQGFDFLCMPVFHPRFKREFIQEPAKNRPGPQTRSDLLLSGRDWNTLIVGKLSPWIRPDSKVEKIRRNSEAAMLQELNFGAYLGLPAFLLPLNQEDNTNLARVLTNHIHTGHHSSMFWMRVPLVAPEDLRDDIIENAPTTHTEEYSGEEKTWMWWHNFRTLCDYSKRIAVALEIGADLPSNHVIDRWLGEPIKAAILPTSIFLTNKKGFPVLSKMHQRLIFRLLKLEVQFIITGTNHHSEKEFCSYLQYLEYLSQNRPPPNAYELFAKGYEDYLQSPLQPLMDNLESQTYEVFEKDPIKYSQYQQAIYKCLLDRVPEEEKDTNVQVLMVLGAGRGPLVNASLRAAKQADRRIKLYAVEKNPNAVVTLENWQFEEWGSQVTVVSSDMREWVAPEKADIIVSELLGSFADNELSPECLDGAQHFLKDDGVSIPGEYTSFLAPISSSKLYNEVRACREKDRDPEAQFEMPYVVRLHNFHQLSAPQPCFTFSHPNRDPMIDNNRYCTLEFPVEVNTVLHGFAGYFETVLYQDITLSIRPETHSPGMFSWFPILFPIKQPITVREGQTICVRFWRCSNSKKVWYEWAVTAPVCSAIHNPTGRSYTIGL
pIC50: −log10 of the molar value.

Examples with their reported pIC50 follow.
CC(CNC(=O)Nc1ccc(C(C)(C)C)cc1)CN(C)C[C@H]1O[C@@H](n2cnc3c(N)ncnc32)[C@H](O)[C@@H]1O (some centres not stated); < 4.30
CNCCNCc1cccc(-c2nc(Nc3ccccc3)c(C)c(-c3c(C)noc3C)n2)c1; < 4.30

QUERY: I would be grateful if you could share the reported pIC50 for "Cc1cc(C)c(CNC(=O)c2cc(-c3ccc(N4CCN(C)CC4)nc3)cc3c2cnn3C(C)C)c(=O)[nH]1" .
RESULT: < 4.00
